Origin of measurements: ChEMBL document CHEMBL5724914

method-notes: The drug is tested on WLS-077 corresponding to human gut metagenome with ENA study accession number: PRJEB37062 and ENA sample accession number: ERS12561750 for biotransformation under anaerobic condition. The drug concentrations were measured over 9 timepoints collected between 0 and 24 hours of incubation by liquid-chromatography-coupled mass spectrometry (LC–MS); further: call rule not given here
experimental-parameters: 2 µM

compound	Bacterial Biotransformation
C#C[C@]1(OC(C)=O)CC[C@H]2[C@@H]3CCC4=C[C@@H](OC(C)=O)CC[C@@H]4[C@H]3CC[C@@]21C [ETHYNODIOL DIACETATE]	Compound metabolized
CCCCC(=O)O[C@]1(C(=O)CO)[C@@H](C)C[C@H]2[C@@H]3CCC4=CC(=O)C=C[C@]4(C)[C@@]3(F)[C@@H](O)C[C@@]21C [BETAMETHASONE VALERATE]	Compound metabolized
CC#CCn1c(N2CCC[C@@H](N)C2)nc2c1c(=O)n(Cc1nc(C)c3ccccc3n1)c(=O)n2C [LINAGLIPTIN]	Compound NOT metabolized
OCCN(CCO)c1nc(N2CCCCC2)c2nc(N(CCO)CCO)nc(N3CCCCC3)c2n1 [DIPYRIDAMOLE]	Compound metabolized
C#C[C@]1(OC(C)=O)CC[C@H]2[C@@H]3CCC4=C/C(=N/O)CC[C@@H]4[C@H]3CC[C@@]21CC [NORGESTIMATE]	Compound metabolized
CNCC[C@H](Oc1cccc2ccccc12)c1cccs1 [DULOXETINE]	Compound NOT metabolized
COc1ccc(Cc2nccc3cc(OC)c(OC)cc23)cc1OC [PAPAVERINE]	Compound NOT metabolized

* * *

experimental-parameters: human gut metagenome, 24 h, 2 µM

compound	Bacterial Biotransformation
CC(C)(C)NC[C@H](O)COc1nsnc1N1CCOCC1.O=C(O)/C=C\C(=O)O [TIMOLOL MALEATE]	Compound NOT metabolized
CN1CCC(=C2c3ccccc3CC(=O)c3sccc32)CC1.O=C(O)/C=C/C(=O)O [KETOTIFEN FUMARATE]	Compound metabolized
CC(=O)OCC(=O)NCCCOc1cccc(CN2CCCCC2)c1 [ROXATIDINE ACETATE]	Compound metabolized
CCN(CC)CCNC(=O)c1cc(S(C)(=O)=O)ccc1OC [TIAPRIDE]	Compound metabolized
O=C1N=C([O-])NC1(c1ccccc1)c1ccccc1.[Na+] [PHENYTOIN SODIUM]	Compound metabolized
CCOC(=O)[C@H](CCc1ccccc1)N[C@@H](C)C(=O)N1CCC[C@H]1C(=O)O.O=C(O)/C=C\C(=O)O [ENALAPRIL MALEATE]	Compound NOT metabolized
Cc1nc(Nc2ncc(C(=O)Nc3c(C)cccc3Cl)s2)cc(N2CCN(CCO)CC2)n1 [DASATINIB ANHYDROUS]	Compound metabolized
CCCN(CCC)CCc1cccc2c1CC(=O)N2	Compound metabolized

* * *

method-notes: The drug is tested on Z-020 corresponding to rabbit gut metagenome with ENA study accession number: PRJEB37062 and ENA sample accession number: ERS12561819 for biotransformation under anaerobic condition. The drug concentrations were measured over 9 timepoints collected between 0 and 24 hours of incubation by liquid-chromatography-coupled mass spectrometry (LC–MS)
experimental-parameters: 2 µM

compound	Bacterial Biotransformation
C=C[C@H]1CN2CC[C@H]1C[C@H]2[C@H](O)c1ccnc2ccc(OC)cc12.C=C[C@H]1CN2CC[C@H]1C[C@H]2[C@H](O)c1ccnc2ccc(OC)cc12.O.O.O=S(=O)(O)O [QUININE SULFATE]	Compound NOT metabolized
CC1=C(CC(=O)O)c2cc(F)ccc2/C1=C\c1ccc([S+](C)[O-])cc1 (stereo not drawn)	Compound NOT metabolized

* * *

method-notes: The drug is tested on WLS-082 corresponding to human gut metagenome with ENA study accession number: PRJEB37062 and ENA sample accession number: ERS12561751 for biotransformation under anaerobic condition. The drug concentrations were measured over 9 timepoints collected between 0 and 24 hours of incubation by liquid-chromatography-coupled mass spectrometry (LC–MS)
experimental-parameters: 2 µM

compound	Bacterial Biotransformation
CC(C)(C)NCC(O)c1cc(Cl)c(N)c(Cl)c1 (stereo unspecified) [CLENBUTEROL]	Compound NOT metabolized
COc1cc(C(=O)NCc2ccc(OCCN(C)C)cc2)cc(OC)c1OC [TRIMETHOBENZAMIDE]	Compound NOT metabolized
CCOC(=O)[C@H](CCc1ccccc1)N[C@@H](C)C(=O)N1CCC[C@H]1C(=O)O.O=C(O)/C=C\C(=O)O [ENALAPRIL MALEATE]	Compound NOT metabolized
COc1ccc2c(c1)c(CC(=O)O)c(C)n2C(=O)c1ccc(Cl)cc1 [INDOMETHACIN]	Compound NOT metabolized
C[C@]12CCC(=O)C=C1[C@@H]1C[C@@H]1[C@H]1[C@@H]3[C@@H]4C[C@@H]4[C@@]4(CCC(=O)O4)[C@@]3(C)CC[C@@H]12 [DROSPIRENONE]	Compound metabolized
CC(=O)Oc1ccc(C(c2ccc(OC(C)=O)cc2)c2ccccn2)cc1 [BISACODYL]	Compound metabolized
COC(=O)C(c1ccccc1)C1CCCCN1 (stereo unspecified) [METHYLPHENIDATE]	Compound NOT metabolized
CC[C@@]1(O)C(=O)OCc2c1cc1n(c2=O)Cc2cc3c(CN(C)C)c(O)ccc3nc2-1 [TOPOTECAN]	Compound NOT metabolized
C#C[C@]1(OC(C)=O)CC[C@H]2[C@@H]3CCC4=C[C@@H](OC(C)=O)CC[C@@H]4[C@H]3CC[C@@]21C [ETHYNODIOL DIACETATE]	Compound metabolized
N#Cc1ccc2[nH]cc(CCCCN3CCN(c4ccc5oc(C(N)=O)cc5c4)CC3)c2c1 [VILAZODONE]	Compound metabolized
CCN(CC)C(=O)C1(c2ccccc2)CC1CN (stereo unspecified)	Compound NOT metabolized
CC(C)C[C@H]1C(=O)N2CCC[C@H]2[C@]2(O)O[C@](NC(=O)[C@@H]3C=C4c5cccc6[nH]c(Br)c(c56)C[C@H]4N(C)C3)(C(C)C)C(=O)N12.CS(=O)(=O)O [BROMOCRIPTINE MESYLATE]	Compound metabolized
COc1ccc([C@@H]2Sc3ccccc3N(CCN(C)C)C(=O)[C@@H]2OC(C)=O)cc1 [DILTIAZEM]	Compound metabolized
CC12CC3CC(C)(C1)CC(N)(C3)C2 [MEMANTINE]	Compound NOT metabolized
N=C(N)NC(=O)Cc1c(Cl)cccc1Cl [GUANFACINE]	Compound NOT metabolized
COc1ccnc(C[S+]([O-])c2nc3ccc(OC(F)F)cc3[nH]2)c1OC (stereo unspecified) [PANTOPRAZOLE]	Compound metabolized

* * *

experimental-parameters: human gut metagenome, 24 h, 2 µM

compound	Bacterial Biotransformation
CC#C[C@]1(O)CC[C@H]2[C@@H]3CCC4=CC(=O)CCC4=C3[C@@H](c3ccc(N(C)C)cc3)C[C@@]21C [MIFEPRISTONE]	Compound NOT metabolized
CC(=O)Nc1ccc(OC(C)=O)cc1 [DIACETAMATE]	Compound metabolized
CC(=O)OCC(CCn1cnc2cnc(N)nc21)COC(C)=O [FAMCICLOVIR]	Compound metabolized
COc1ccc(CN2CCNCC2)c(OC)c1OC.Cl.Cl [TRIMETAZIDINE DIHYDROCHLORIDE]	Compound NOT metabolized
CC(C)c1nc(N(C)S(C)(=O)=O)nc(-c2ccc(F)cc2)c1/C=C/[C@@H](O)C[C@@H](O)CC(=O)[O-].CC(C)c1nc(N(C)S(C)(=O)=O)nc(-c2ccc(F)cc2)c1/C=C/[C@@H](O)C[C@@H](O)CC(=O)[O-].[Ca+2] [ROSUVASTATIN CALCIUM]	Compound metabolized
COc1cc(C(=O)NCc2ccc(OCCN(C)C)cc2)cc(OC)c1OC [TRIMETHOBENZAMIDE]	Compound NOT metabolized
COc1ccnc(C[S+]([O-])c2nc3ccc(OC(F)F)cc3[nH]2)c1OC (stereo not drawn) [PANTOPRAZOLE]	Compound metabolized
Nc1nc(N)nc(-c2cc(Cl)ccc2Cl)n1.O=C(O)/C=C\C(=O)O [IRSOGLADINE MALEATE]	Compound NOT metabolized

* * *

experimental-parameters: human gut metagenome, 24 h, 2 µM

compound	Bacterial Biotransformation
CN(C)C(=O)Oc1cccc([N+](C)(C)C)c1.[Br-] [NEOSTIGMINE BROMIDE]	Compound NOT metabolized
Cc1nc(Nc2ncc(C(=O)Nc3c(C)cccc3Cl)s2)cc(N2CCN(CCO)CC2)n1 [DASATINIB ANHYDROUS]	Compound metabolized
CCN(CC)C(=O)C1(c2ccccc2)CC1CN (stereo not given)	Compound NOT metabolized
C#C[C@]1(OC(C)=O)CC[C@H]2[C@@H]3CCC4=C[C@@H](OC(C)=O)CC[C@@H]4[C@H]3CC[C@@]21C [ETHYNODIOL DIACETATE]	Compound metabolized
CN(C/C=C/C#CC(C)(C)C)Cc1cccc2ccccc12	Compound NOT metabolized

* * *

method-notes: The drug is tested on WLS-038 corresponding to human gut metagenome with ENA study accession number: PRJEB37062 and ENA sample accession number: ERS12561745 for biotransformation under anaerobic condition. The drug concentrations were measured over 9 timepoints collected between 0 and 24 hours of incubation by liquid-chromatography-coupled mass spectrometry (LC–MS)
experimental-parameters: 2 µM

compound	Bacterial Biotransformation
CN(C)C(=O)Oc1cccc([N+](C)(C)C)c1.[Br-] [NEOSTIGMINE BROMIDE]	Compound NOT metabolized
CC[C@H](C)C(=O)O[C@H]1CCC=C2C=C[C@H](C)[C@H](CC[C@@H]3C[C@@H](O)CC(=O)O3)[C@H]21 [MEVASTATIN]	Compound metabolized
OC(c1cc(C(F)(F)F)nc2c(C(F)(F)F)cccc12)C1CCCCN1 (stereo unspecified) [MEFLOQUINE]	Compound metabolized
O=C(CCCN1CCC2(CC1)C(=O)NCN2c1ccccc1)c1ccc(F)cc1 [SPIPERONE]	Compound NOT metabolized
C=C[C@H]1CN2CC[C@H]1C[C@H]2[C@H](O)c1ccnc2ccc(OC)cc12.C=C[C@H]1CN2CC[C@H]1C[C@H]2[C@H](O)c1ccnc2ccc(OC)cc12.O.O.O=S(=O)(O)O [QUININE SULFATE]	Compound NOT metabolized
CC12CC3CC(C)(C1)CC(N)(C3)C2 [MEMANTINE]	Compound NOT metabolized
CN1CCC(=C2c3ccccc3CC(=O)c3sccc32)CC1.O=C(O)/C=C/C(=O)O [KETOTIFEN FUMARATE]	Compound NOT metabolized
COc1ccc2c(c1)c(CC(=O)O)c(C)n2C(=O)c1ccc(Cl)cc1 [INDOMETHACIN]	Compound metabolized
O=C1CN2Cc3c(ccc(Cl)c3Cl)N=C2N1 [ANAGRELIDE]	Compound metabolized
CC(C)C[C@H]1C(=O)N2CCC[C@H]2[C@]2(O)O[C@](NC(=O)[C@@H]3C=C4c5cccc6[nH]c(Br)c(c56)C[C@H]4N(C)C3)(C(C)C)C(=O)N12.CS(=O)(=O)O [BROMOCRIPTINE MESYLATE]	Compound metabolized
COC(=O)[C@H](c1ccccc1Cl)N1CCc2sccc2C1.O=S(=O)(O)O [CLOPIDOGREL BISULFATE]	Compound metabolized
CCc1oc2ccccc2c1C(=O)c1cc(Br)c(O)c(Br)c1 [BENZBROMARONE]	Compound metabolized
OCCN(CCO)c1nc(N2CCCCC2)c2nc(N(CCO)CCO)nc(N3CCCCC3)c2n1 [DIPYRIDAMOLE]	Compound NOT metabolized
COc1ccc(C(CN(C)C)C2(O)CCCCC2)cc1 (stereo unspecified) [VENLAFAXINE]	Compound NOT metabolized
CC(=O)CCCCn1c(=O)c2c(ncn2C)n(C)c1=O [PENTOXIFYLLINE]	Compound NOT metabolized
CN(C)CCC=C1c2ccccc2COc2ccccc21 [DOXEPIN]	Compound NOT metabolized
